All values here come from PubChem BioAssay AID624296.

Test method notes: A quantitative high throughput screen for small molecules that induce DNA re-replication in MCF 10a normal breast cells. Also: nearly all actives have a fitted effect of over 50% in size.
Applied conditions: MCF 10A DNA re-replication, Hoechst nuclear intensity, 48 h; series mostly up to 46.1 µM
About 9,900 (2.8%) of roughly 350,000 compounds were called active. About 15% were inconclusive and are not listed. Calls follow the shape of the dose curve; as a rule, active = well fitted activation curve with a large enough effect; inconclusive = small, poorly fitted or top-dose-only effect; inactive = no such curve, though single readings can be large or run the other way. What follows is part of a selection rich in actives, with near analogues and random picks from the rest.
A correct response names exactly one class from 1 (active), 0 (inactive)

Test call, this compound: Cc1ccc(Cn2c(=N)c(S(=O)(=O)c3ccc(C)cc3)cc3c(=O)n4ccccc4nc32)cc1
1

Test call, this compound: CC(Nc1ccc([N+](=O)[O-])cc1[N+](=O)[O-])c1ccccc1 (configuration not stated)
0

Test call, this compound: CCOC(=O)CSc1nnc(NC(=O)c2cccc(S(=O)(=O)N3CCCC3)c2)s1
0

Test call, this compound: CC(=O)NCc1ccc(-c2csc(NC(=O)CCCc3nc4ccccc4c(=O)[nH]3)n2)cc1
0

Test call, this compound: COc1ccc(-c2cc(-c3ccc(N)cc3)nc(N)c2C#N)cc1OC
1

Test call, this compound: CCn1c(=N)c(S(=O)(=O)c2ccc(F)cc2)cc2c(=O)n3ccccc3nc21
1

Test call, this compound: CC(C)=CCc1c(O)c(CC=C(C)C)c2occ(-c3ccc(O)cc3)c(=O)c2c1O
1

Test call, this compound: Cc1ccc(-c2csc(NC(=O)Cn3[nH]c(=O)c4ccccc4c3=O)n2)cc1
1

Test call, this compound: COc1ccc(C(=O)NCC2CCCCC2)cc1S(=O)(=O)N1CCCC1
0

Test call, this compound: O=c1nc(NO)ccn1C1CCCO1 (configuration not stated)
0

Test call, this compound: O=C(COC(=O)c1cc[n+]([O-])cc1)Nc1ccc(Cl)c(C(F)(F)F)c1
0

Test call, this compound: CCOc1cc(-c2cc(-c3ccc(OC)cc3)nc(N)c2C#N)ccc1O
0

Test call, this compound: COC(=O)C1=C(C)NC(=S)NC1c1ccc(OCC(=O)N2CC(C)OC(C)C2)c(OC)c1 (configuration not stated)
0

Test call, this compound: CCCCCCSc1ccc([C@@H]2[C@H]3C(=O)N(CC)C(=O)[C@H]3[C@]3(C(=O)OC)CCCCN23)cc1
0

Test call, this compound: CN(C)/C=C/C(=O)c1ccccc1F
0

Test call, this compound: CC(=O)Nc1ccc(-c2cn3cccnc3n2)cc1
0

Test call, this compound: CCN(CC)S(=O)(=O)c1ccc(OC)c(NC(=O)CCc2c(C)noc2C)c1
0

Test call, this compound: O=C1OCC2=C1C(c1ccc(Cl)cc1)c1cc3c(cc1O2)OCO3 (configuration not stated)
0

Test call, this compound: O=C(c1cnccn1)N1CCN(S(=O)(=O)c2cccc(Cl)c2)CC1
0

Test call, this compound: COc1ccc(S(=O)(=O)N2CCC(C(=O)NCc3ccco3)CC2)cc1C
0

Test call, this compound: Nc1ncnc2c1cnn2C1CC(O)C(CO)O1 (configuration not stated)
0

Test call, this compound: O=C(COc1ccc(F)cc1Br)NCC1COc2ccccc2O1 (configuration not stated)
0

Test call, this compound: CCOC(=O)C1=C(CC)Nc2ccccc2N=C1NC(=O)c1cccc(S(=O)(=O)N2CCCC2)c1
1

Test call, this compound: O=C(/C=C/c1ccccc1)c1ccccc1O
1

Test call, this compound: O=C(NCc1cc(C(F)(F)F)cc(C(F)(F)F)c1)C1CC(c2cccc(F)c2)=NO1 (configuration not stated)
0

Test call, this compound: O=C(COC(=O)COc1cccc(F)c1)NCC1CCCCC1
0

Test call, this compound: CCOCCCNC(=O)c1cc2c(=O)n3ccccc3nc2s1
0

Test call, this compound: O=C(Cc1ccc([N+](=O)[O-])cc1)NCCc1ccc2c(c1)OCO2
0

Test call, this compound: COc1ccc(C2=NOC(C(=O)NCc3ccco3)C2)cc1OC (configuration not stated)
1

Test call, this compound: COC(=O)Cc1c(-c2[nH]c3ccccc3c2CC(=O)OC)[nH]c2ccccc12
0

Test call, this compound: COC1=CC(=O)OC(c2ccc(OC)cc2)C1 (configuration not stated)
0

Test call, this compound: C=CC[C@@H](CC(=O)N[C@@H](CO)Cc1ccccc1)C(=O)NCCOC(=O)[C@@H](CC=C)CC(=O)OC(C)(C)C
0

Test call, this compound: O=C(Nc1ccc(C(F)(F)F)cc1)c1cccc(-n2cnnn2)c1
0

Test call, this compound: COc1cc(OC)c(S(=O)(=O)Nc2ccccc2C(=O)O)cc1S(=O)(=O)Nc1ccccc1C(=O)O
0

Test call, this compound: Cc1ccc(N2C(=O)N3[C@@H]4c5ccccc5OC[C@@H]4[C@@H](c4ccccc4)[C@@]3(C)C2=O)cc1
0

Test call, this compound: O=Cc1c(Nc2ccccc2Cl)nc2ccccn2c1=O
0

Test call, this compound: COc1ccc(OC)c(Cc2cnc3nc(N)nc(N)c3c2C)c1
0

Test call, this compound: Cc1cc(C)c(C=NNc2nc3c([nH]2)c(=O)n(C)c(=O)n3C)c(C)c1
0

Test call, this compound: C[C@]12CC[C@H](O)CC1=CCC1C2CC[C@@]2(C)C1CC[C@@H]2NC(=O)CCC(=O)O (some centres not stated)
0

Test call, this compound: O=C1c2ccccc2C(=O)N1CCC#Cc1ccc2cc(C3(O)CCCCC3)oc(=O)c2c1
0

Test call, this compound: COc1ccc(CNC(=O)CN2C(=O)NC3(CCCc4sccc43)C2=O)cc1 (configuration not stated)
0

Test call, this compound: Cc1ccc(C(C)C)cc1OCCN1CCCC1
0
